Tested on: Huh-7 cells
Conditions: human
Catalogue of CC50 readings, one per entry.
Record the result as number plus unit.

CCN(CC)CCCC(C)Nc1ccnc2cc(Cl)ccc12 (centres unmarked) [chloroquine, reference compound]	21 µM

Problem: Please give the documented CC50 of CCN(CCO)CCCC(C)Nc1ccnc2cc(Cl)ccc12 (centres unmarked) [hydroxychloroquine, reference compound]
Result: 26 µM

====

Tested on: HCoV-229E
Assay: microbe, parasite or virus in culture
Format: cell-based, human coronavirus alpha-229E
Details: read-out: Neutral Red Assay EC50
Observable: EC50 (µM)
Write down the numeric answer in µM and omit the unit.

Problem: Please give the documented EC50 of CNc1nc(N)nc2c1ncn2[C@@H]1O[C@H](CO[P@@](=O)(N[C@@H](C)C(=O)OC(C)C)Oc2ccccc2)[C@@H](O)[C@@]1(C)F
Result: 1.6

====

Test: Cytotoxicity in mock infected BHK-21 cells (MTT)
Type: cell-based, hamster
Settings: hamster, uninfected BHK-21 cells; BHK-21; Table 5
Observable: CC50 at 3 days

CC(C)OC(=O)[C@H](C)N[P@](=O)(OC[C@H]1O[C@@H](n2ccc(=O)[nH]c2=O)[C@](C)(F)[C@@H]1O)Oc1ccccc1 [sofosbuvir, reference compound]	> 100 µM

Problem: Please give the documented CC50 at 3 days of CNc1nc(N)nc2c1ncn2[C@@H]1O[C@H](CO[P@@](=O)(N[C@@H](C)C(=O)OC(C)C)Oc2ccccc2)[C@@H](O)[C@@]1(C)F
Result: > 100 µM

====

System: mock infected MES-1 cells
Test: Cytotoxicity in mock infected MES-1 cells (MTT)
Format: cell-based
Details: 3 days, Table 3B
Observable: CC50

Completed entries (count: 2):
CC(C)OC(=O)[C@H](C)N[P@](=O)(OC[C@H]1O[C@@H](n2ccc(=O)[nH]c2=O)[C@](C)(F)[C@@H]1O)Oc1ccccc1 [sofosbuvir, reference compound]	> 100 µM
CNc1nc(N)nc2c1ncn2[C@@H]1O[C@H](CO[P@](=O)(N[C@@H](C)C(=O)OC(C)C)Oc2ccccc2)[C@@H](O)[C@@]1(C)F [Compound 1B]	> 100 µM

Let us examine a further case.
Problem: Please give the documented CC50 of CNc1nc(N)nc2c1ncn2[C@@H]1O[C@H](CO[P@@](=O)(N[C@@H](C)C(=O)OC(C)C)Oc2ccccc2)[C@@H](O)[C@@]1(C)F [Compound 1A]
Result: > 100 µM

====

Catalogue of CC50 readings, one per entry.
Assay: in vitro
Details: human

Problem: Please give the documented CC50 of O=c1nc(NO)ccn1[C@@H]1O[C@H](CO)[C@@H](O)[C@H]1O [N^4-hydroxycytidine, reference compound]
Result: > 19 µM

Problem: Please give the documented CC50 of CNc1nc(N)nc2c1ncn2[C@@H]1O[C@H](CO[P@@](=O)(N[C@@H](C)C(=O)OC(C)C)Oc2ccccc2)[C@@H](O)[C@@]1(C)F
Result: > 50 µg/mL

====

Test: Plasma PK of metabolites in non-human primates after oral Compound 2A
Details: cynomolgus, cynomolgus monkey, in vivo, 30 mg/kg
Observable: Tmax (h)
Write down the numeric answer in h and omit the unit.

Problem: Please give the documented Tmax of C[C@@]1(F)[C@H](O)[C@@H](CO)O[C@H]1n1cnc2c(=O)[nH]c(N)nc21 [Compound 1-7]
Result: 2

====

Assay: in vitro
Conditions: human, Neutral Red Assay CC50
Observable: CC50

Problem: Please give the documented CC50 of CNc1nc(N)nc2c1ncn2[C@@H]1O[C@H](CO[P@@](=O)(N[C@@H](C)C(=O)OC(C)C)Oc2ccccc2)[C@@H](O)[C@@]1(C)F
Result: > 86 µM

====

Experiment: in vivo
Details: cynomolgus, cynomolgus monkey, po, 30 mg/kg
Observable: AUC(0-t) (µM·h)
Write down the numeric answer in µM·h and omit the unit.

Problem: Please give the documented AUC(0-t) of C[C@@]1(F)[C@H](O)[C@@H](CO)O[C@H]1n1cnc2c(=O)[nH]c(N)nc21
Result: 0.47

This collection of values is drawn from patent US10874687B1.
